FYI, the data here is from PubChem BioAssay (NCI).

# Test system: UACC-257 melanoma
# assay summary: NCI-60 one-dose screen, 48 h
# run conditions: 10 µM unless noted
Compounds without any hit were thinned out: in the full panel of roughly 83,000, 20% have a hit. Calls of active or inactive are those of the source. The calls were made as follows: active = growth percent below 10; inactive = the rest.
Answer with one of the outcomes given here: active, inactive

Test call for this compound, please: Clc1ccc(N2CCN(CCCN3CCN(c4cccc(Cl)c4)CC3)CC2)cc1 inactive

Test call for this compound, please: Cn1cc(-c2nnc(-c3cn(C)c4ncc(Br)cc34)s2)c2cc(Br)ccc21 inactive

Test call for this compound, please: COc1ccc(-c2cc(-c3ccc(OC)c(OC)c3)nc(SCCCCCC(=O)NO)n2)cc1 inactive

Test call for this compound, please: C=C(C)[C@@H]1CC[C@]2(COC(=O)c3ccccc3C(=O)O)CC[C@]3(C)[C@H](CC[C@@H]4[C@@]5(C)CC[C@H](OC(=O)c6ccccc6C(=O)O)C(C)(C)[C@@H]5CC[C@]43C)[C@@H]12 inactive

Test call for this compound, please: COc1cc2c(c(OC)c1)C1c3cc(OC)ccc3NC(=O)N1CC2 (configuration not stated) inactive

Test call for this compound, please: CC1(C)CC[C@]2(C(=O)O)CC[C@]3(C)C(=CC[C@@H]4[C@@]5(C)C/C(=C/c6cccnc6)[C@H](O)C(C)(C)[C@@H]5CC[C@]43C)[C@@H]2C1 active

Test call for this compound, please: CC(C)=CC/C=C(/C)[C@H]1CC[C@]2(C)[C@@H]1CC[C@@H]1[C@@]3(C)CC/C(=N/O)C(C)(C)[C@@H]3CC[C@]12C inactive
